# System: U2OS
# assay: Multiplex assay against U2OS
# Format: toxicity, cell-based
# stated-conditions: human, 24 h, 1 µM, compound concentration 1 uM, replicate 2
The threshold is inclusive: Population Pyknosed Nuclei (%) of exactly 7% counts as y; values below receive n.

Query string: Is the recorded value of Population Pyknosed Nuclei (%) equal to or greater than 7% for this molecule? Cc1cc(O)c(-c2ccc([C@@H](C)CN(C)C)cc2)c2c1[nH]c(=O)c1sccc12
Result string: y

Query string: Is the recorded value of Population Pyknosed Nuclei (%) equal to or greater than 7% for this molecule? COc1cc2nc(N3CCN(C(=O)COc4c(OC)cccc4C(C)C)CC3)nc(N)c2cc1OC.Cl.Cl
Result string: n

Query string: Is the recorded value of Population Pyknosed Nuclei (%) equal to or greater than 7% for this molecule? Cc1nn(C)c2nc(NNC(=O)Nc3cc(Cl)nc(Cl)c3)cc(C(C)C)c12
Result string: y

Query string: Is the recorded value of Population Pyknosed Nuclei (%) equal to or greater than 7% for this molecule? COCCn1c(C)c(C)s/c1=N\C(=O)C1C(C)(C)C1(C)C
Result string: n
